read-out: Macrophage colony-stimulating factor (MCSF), CSF1 (gene 1435); assay: BSK_LPS_MCSF: BioMAP Diversity Plus: LPS Assay for Macrophage colony-stimulating factor (MCSF) Biomarker Activity (AID 2283083); conditions: primary human HUVEC with PBMC; actives raise or lower the signal
Active and inactive are the calls of the source. The calls were made as follows: active = hit-call score of the fitted dose curve at least 0.9, where 1 is the maximum; inactive = score below 0.9.
Your reply should match one of these outcome classes. YES = active, NO = inactive

These solved cases illustrate the format of a correct answer.
{"columns": ["compound", "category"],
 "data": [
  ["CNC(=O)Oc1ccccc1OC(C)C", "NO"],
  ["O=[N+]([O-])/N=C1\\NCCN1Cc1ccc(Cl)nc1", "NO"],
  ["O=C1c2ccccc2C(=O)N1SC(Cl)(Cl)Cl", "NO"],
  ["O=C(NC(=O)c1c(F)cccc1F)Nc1ccc(OC(F)(F)C(F)OC(F)(F)F)c(Cl)c1 (stereo not given)", "NO"],
  ["COP(=O)(OC)OC=C(Cl)Cl", "YES"]
]}

// param item: Oc1cc(Cl)ccc1Oc1ccc(Cl)cc1Cl ; yields the recorded call YES

Record lookup: outcome of this test for COP(=S)(OC)Oc1ccc([N+](=O)[O-])cc1 ? YES

For CCS(=O)(=O)c1cccnc1S(=O)(=O)NC(=O)Nc1nc(OC)cc(OC)n1 , which call appears in the assay record? NO

Could you check what this test reported for CC[C@H](C)[C@H]1O[C@]2(C=C[C@@H]1C)C[C@@H]1C[C@@H](C/C=C(\C)[C@@H](O[C@H]3C[C@H](OC)[C@@H](O[C@H]4C[C@H](OC)[C@@H](O)[C@H](C)O4)[C@H](C)O3)[C@@H](C)/C=C/C=C3\CO[C@@H]4[C@H](O)C(C)=C[C@@H](C(=O)O1)[C@]34O)O2 (tested in a mixture with another compound) ? YES

Test call for this compound, please: CCOCN(C(=O)CCl)c1c(C)cccc1CC YES

###

experiment: ATG_VDRE_CIS: Attagene CIS-FACTORIAL HepG2 Assay for human Vitamin D Receptor Element (VDRE) (AID 2282968); details: HepG2 VDRE cis-reporter transcription, actives raise or lower the signal
Activity calls are given as the source filed them. Rule for the calls: active = hit-call score of the fitted dose curve at least 0.9, where 1 is the maximum; inactive = score below 0.9.
One label from this list, please: active, inactive

Recorded results for 5 compounds are shown here.
{"columns": ["smilesText", "category"],
 "data": [
  ["O=[N+]([O-])c1c(Cl)c(Cl)c(Cl)c(Cl)c1Cl", "active"],
  ["CCCN(CCC)c1c([N+](=O)[O-])cc(C(F)(F)F)cc1[N+](=O)[O-]", "active"],
  ["O=C(O)COc1ccc(Cl)cc1Cl", "inactive"],
  ["Cc1cc(C)nc(NC(=O)NS(=O)(=O)c2ccccc2C(=O)OC2COC2)n1", "active"],
  ["CN1CSC(=S)N(C)C1", "active"]
]}

Please look at the following compound next.
Could you kindly confirm the outcome this assay logged for N#Cc1c(Cl)c(Cl)c(Cl)c(C#N)c1Cl ? active

###

read-out: Vascular cell adhesion molecule 1 (VCAM1), VCAM1 (gene 7412); assay: BSK_4H_VCAM1: BioMAP Diversity Plus: 4H Assay for Vascular cell adhesion molecule 1 (VCAM1) Biomarker Activity (AID 2283033); conditions: primary human endothelial cells (HUVEC); actives raise or lower the signal
Calls of active or inactive are those of the source. Rule for the calls: active = hit-call score of the fitted dose curve at least 0.9, where 1 is the maximum; inactive = score below 0.9.
readout: AC50

// worked examples, AC50 included
{"columns": ["molecule", "AC50"],
 "data": [
  ["N#Cc1c(Cl)c(Cl)c(Cl)c(C#N)c1Cl", "1.16 µM (active)"],
  ["COc1nn(CSP(=S)(OC)OC)c(=O)s1", "inactive"],
  ["COP(=O)(OC)OC=C(Cl)Cl", "inactive"],
  ["COC(=O)c1ccccc1S(=O)(=O)NC(=O)Nc1nc(C)nc(OC)n1", "inactive"],
  ["O=S(=O)(O)C(F)(F)C(F)(F)C(F)(F)C(F)(F)C(F)(F)C(F)(F)C(F)(F)C(F)(F)F", "inactive"],
  ["CN1CSC(=S)N(C)C1", "16.9 µM (active)"],
  ["CNC(=O)CSP(=S)(OC)OC", "inactive"],
  ["[2H]C1([2H])[n+]2ccccc2-c2cccc[n+]2C1([2H])[2H]", "inactive"]
]}

Provide each entry's AC50 from the list below.
1. CCC(C)Nc1c([N+](=O)[O-])cc(C(C)(C)C)cc1[N+](=O)[O-] (stereo unspecified)
2. CC(C)N(C(=O)COc1nnc(C(F)(F)F)s1)c1ccc(F)cc1

15.8 µM (active)
inactive
